Taken from the Human Domainome abundance scans (Beltran et al. 2025).

B1: POU domain, class 3, transcription factor 3, residues 320 to 388; numbered along this chain, P20264 (parent)
chain: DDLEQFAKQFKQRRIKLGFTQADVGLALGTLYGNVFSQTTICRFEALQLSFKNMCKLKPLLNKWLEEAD

# Variants of: B1
# EXPERIMENTAL DETAILS: abundance fitness (aPCA) (normalised: wild type 0, dead -1); higher = more abundant; growth selection in yeast, the domain comes from the species named
# CONDITION DESCRIPTION: Homo sapiens
READOUT KIND: abundance fitness

q: Return reported abundance fitness; argument: DDLEQFAKQFKQRRIKLGFTQADVGLALGTLYGNVHSQTTICRFEALQLSFKNMCKLKPLLNKWLEEAD [F36H]
a: -0.216

q: Same for DDLEQFAKQFKQRRIKLGFTQADVGLALGTLWGNVFSQTTICRFEALQLSFKNMCKLKPLLNKWLEEAD [Y32W]
a: -0.276

q: Also check DDLEQFAKQFKQRRIKLGFTQADVGLALITLYGNVFSQTTICRFEALQLSFKNMCKLKPLLNKWLEEAD [G29I]
a: -0.464

q: Ok, now DDLEQFAKQFKQRRIKLGFTQADVGLALGTLGGNVFSQTTICRFEALQLSFKNMCKLKPLLNKWLEEAD [Y32G]
a: -0.225

q: DDLEQFAKQFKQRRIKLGFTQADVMLALGTLYGNVFSQTTICRFEALQLSFKNMCKLKPLLNKWLEEAD [G25M] ?
a: -0.754

q: Continue with DDLEQFAKQFKQRRIKLGFTQADVGWALGTLYGNVFSQTTICRFEALQLSFKNMCKLKPLLNKWLEEAD [L26W]
a: -0.24

q: Try this variant too: DDLEQFAKQFKQRRIKLGFTQADVGLALGTLYQNVFSQTTICRFEALQLSFKNMCKLKPLLNKWLEEAD [G33Q]
a: -0.263

q: Next: DDLEQFAKQFKQRRIKLGFTQADVGLALGTLYGNVFSQITICRFEALQLSFKNMCKLKPLLNKWLEEAD [T39I]
a: -0.157

q: Now this one: DDLEQFAKQFKQRRIKLGFTQADVGYALGTLYGNVFSQTTICRFEALQLSFKNMCKLKPLLNKWLEEAD [L26Y]
a: 0.035

q: Try this variant too: DDLEQFAKQFKQRRIKLGFTQADVGLALGTLTGNVFSQTTICRFEALQLSFKNMCKLKPLLNKWLEEAD [Y32T]
a: -0.526

q: Cool, now DDLEQFAKQFKQRRIKLGFTQADVGLALDTLYGNVFSQTTICRFEALQLSFKNMCKLKPLLNKWLEEAD [G29D]
a: -0.736

q: Moving on to the next variant: DDLEQFAKQFKQRRIKLGFTQADVGLANGTLYGNVFSQTTICRFEALQLSFKNMCKLKPLLNKWLEEAD [L28N]
a: -0.71

q: Please do the same for DDLEQFAKQFKQRRIKLGFTQADVGLALGTLYGNVFSQTCICRFEALQLSFKNMCKLKPLLNKWLEEAD [T40C] as well.
a: -0.615

q: Entry to check: DDLEQFAKQFKQRRIKLGFTQADVGLELGTLYGNVFSQTTICRFEALQLSFKNMCKLKPLLNKWLEEAD [A27E]
a: -0.375

q: For DDLEQFAKQFKQRRIKLGFTQADVGLALGTLYGNFFSQTTICRFEALQLSFKNMCKLKPLLNKWLEEAD [V35F] then?
a: -0.179

q: Same question, DDLEQFAKQFKQRRIKLGFTQADVGLALGTLYGNVFSQTTICRLEALQLSFKNMCKLKPLLNKWLEEAD [F44L] this time
a: -0.859

q: And then DDLEQFAKQFKQRRIKLGFTQADVGLALGTLKGNVFSQTTICRFEALQLSFKNMCKLKPLLNKWLEEAD [Y32K] , what is it?
a: -0.559

q: Queued: DDLEQFAKQFKQRRIKLGFTQAVVGLALGTLYGNVFSQTTICRFEALQLSFKNMCKLKPLLNKWLEEAD [D23V]
a: -0.937

q: Then DDLEQFAKQFKQRRIKLGFTQADVGLALGTLYGNVFSMTTICRFEALQLSFKNMCKLKPLLNKWLEEAD [Q38M] ?
a: -0.498

q: One more variant: DDLEQFAKQFKQRRIKLGFTQADVGLALGTLYGNVFSQTTICHFEALQLSFKNMCKLKPLLNKWLEEAD [R43H]
a: -0.586

q: Same lookup for DDLEQFAKQFKQRRIKLGFTQADVGLALGTLYFNVFSQTTICRFEALQLSFKNMCKLKPLLNKWLEEAD [G33F] , please.
a: -0.766

q: What would you report for DDLEQFAKQFKQRRIKLGFTQADVGLALGTLYGNAFSQTTICRFEALQLSFKNMCKLKPLLNKWLEEAD [V35A] ?
a: -0.537

q: Another: DDLEQFAKQFKQRRIKLGFTQADVGVALGTLYGNVFSQTTICRFEALQLSFKNMCKLKPLLNKWLEEAD [L26V]
a: -0.147

q: Then DDLEQFAKQFKQRRIKLGFTQADVGLALGTLMGNVFSQTTICRFEALQLSFKNMCKLKPLLNKWLEEAD [Y32M] ?
a: -0.647

q: Next up: DDLEQFAKQFKQRRIKLGFTQADVGLALGTLYGNVFNQTTICRFEALQLSFKNMCKLKPLLNKWLEEAD [S37N]
a: -0.338

q: Then DDLEQFAKQFKQRRIKLGFTQADVGLALGTLHGNVFSQTTICRFEALQLSFKNMCKLKPLLNKWLEEAD [Y32H] ?
a: -0.099

q: DDLEQFAKQFKQRRIKLGFTQADVGLALGTLYGNMFSQTTICRFEALQLSFKNMCKLKPLLNKWLEEAD [V35M] , same question.
a: -0.278

q: Please do the same for DDLEQFAKQFKQRRIKLGFTQADVGLALGTLYGNVFFQTTICRFEALQLSFKNMCKLKPLLNKWLEEAD [S37F] as well.
a: -0.841

q: Next: DDLEQFAKQFKQRRIKLGFTQADVGLALGTLYGNVFSQTTICRPEALQLSFKNMCKLKPLLNKWLEEAD [F44P]
a: -1.02

q: Queued: DDLEQFAKQFKQRRIKLGFTQADVGLALGTLYGNVFSQTTITRFEALQLSFKNMCKLKPLLNKWLEEAD [C42T]
a: -0.176

q: How about DDLEQFAKQFKQRRIKLGFTQADVGLALGTLYGNVFKQTTICRFEALQLSFKNMCKLKPLLNKWLEEAD [S37K] ?
a: -0.532

q: Please do the same for DDLEQFAKQFKQRRIKLGFTQADVGLALGTLYGDVFSQTTICRFEALQLSFKNMCKLKPLLNKWLEEAD [N34D] as well.
a: -0.085

q: Let us now turn to DDLEQFAKQFKQRRIKLGFTQADVGDALGTLYGNVFSQTTICRFEALQLSFKNMCKLKPLLNKWLEEAD [L26D]
a: -0.016

q: Ok, now DDLEQFAKQFKQRRIKLGFTQADVGLPLGTLYGNVFSQTTICRFEALQLSFKNMCKLKPLLNKWLEEAD [A27P]
a: -0.8

q: What do you get for DDLEQFAKQFKQRRIKLGFTQADVGLALGTLYGMVFSQTTICRFEALQLSFKNMCKLKPLLNKWLEEAD [N34M] ?
a: -0.22

q: Another: DDLEQFAKQFKQRRIKLGFTQADVGLALGTLYGNVFSCTTICRFEALQLSFKNMCKLKPLLNKWLEEAD [Q38C]
a: -0.32

q: Also DDLEQFAKQFKQRRIKLGFTQADVGLALGTLYGNVFVQTTICRFEALQLSFKNMCKLKPLLNKWLEEAD [S37V] , if possible.
a: -0.7

q: # iterate: DDLEQFAKQFKQRRIKLGFTQADSGLALGTLYGNVFSQTTICRFEALQLSFKNMCKLKPLLNKWLEEAD [V24S]
a: -0.941

q: Entry to check: DDLEQFAKQFKQRRIKLGFTQADVGLALGTIYGNVFSQTTICRFEALQLSFKNMCKLKPLLNKWLEEAD [L31I]
a: 0.076

q: What do you get for DDLEQFAKQFKQRRIKLGFTQADVGLALRTLYGNVFSQTTICRFEALQLSFKNMCKLKPLLNKWLEEAD [G29R] ?
a: 0.02

q: Let us now turn to DDLEQFAKQFKQRRIKLGFTQADVGLALGTQYGNVFSQTTICRFEALQLSFKNMCKLKPLLNKWLEEAD [L31Q]
a: -0.116

q: Similarly, DDLEQFAKQFKQRRIKLGFTQADVGLALGTMYGNVFSQTTICRFEALQLSFKNMCKLKPLLNKWLEEAD [L31M] ?
a: -0.156

q: Moving on to DDLEQFAKQFKQRRIKLGFTQADVGLASGTLYGNVFSQTTICRFEALQLSFKNMCKLKPLLNKWLEEAD [L28S]
a: -0.94

q: Same question for DDLEQFAKQFKQRRIKLGFTQADVGLALGTLYGEVFSQTTICRFEALQLSFKNMCKLKPLLNKWLEEAD [N34E] please.
a: 0.136

q: Another variant: DDLEQFAKQFKQRRIKLGFTQADAGLALGTLYGNVFSQTTICRFEALQLSFKNMCKLKPLLNKWLEEAD [V24A]
a: -0.677

q: Another: DDLEQFAKQFKQRRIKLGFTQADVGLDLGTLYGNVFSQTTICRFEALQLSFKNMCKLKPLLNKWLEEAD [A27D]
a: -0.613
